All values here come from ChEMBL document CHEMBL4368918.

- Study Target: Proteasome subunit beta type-9 (Homo sapiens)
- Sequence (P28065 whole entry): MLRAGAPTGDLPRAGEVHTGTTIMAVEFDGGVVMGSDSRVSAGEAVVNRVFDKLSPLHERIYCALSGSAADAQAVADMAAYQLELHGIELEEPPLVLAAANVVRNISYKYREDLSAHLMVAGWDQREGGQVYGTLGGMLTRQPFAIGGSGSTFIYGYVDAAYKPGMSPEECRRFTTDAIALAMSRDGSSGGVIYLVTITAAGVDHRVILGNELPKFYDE
- Procedure Text: Inhibition of 20S immunoproteasome beta 1 in human RPMI8226 cell lysates after 1 hr by coomassie brilliant blue staining-based fluorescence assay
- Type: subcellular, Lysate
pIC50: −log10 of the molar value.
Assign pIC50 to each entry below.

Guide cases for pIC50, answers given:
CC(C)C[C@H](NC(=O)[C@H](Cc1ccccc1)N=[N+]=[N-])C(=O)N[C@@H](CC(C)C)C(=O)N[C@H](/C=C/S(C)(=O)=O)Cc1ccc(CN)cc1    < 5.00
COC[C@H](NC(=O)[C@H](CC(C)C)NC(=O)c1cnc(C)s1)C(=O)N[C@H](/C=C/S(C)(=O)=O)Cc1ccc(CN)cc1    < 5.00

Now look at this entry.
According to the records, this compound CC(C)C[C@H](NC(=O)[C@H](Cc1ccccc1)N=[N+]=[N-])C(=O)NCC(=O)N[C@H](/C=C/S(C)(=O)=O)Cc1ccc(CN)cc1 displays pIC50 of < 5.00
